- Tested on: IL-4 induced germline ε transcription (ε promoter reporter in A5T4 cells)
- test_name: Re-infection (DNA transfer) assay in naïve A5T4 reporter cells; functional profile of mutants
- Format: cell-based, human
- test_parameters: screening in the A5T4 reporter line; wild type and mutants
endpoint_name: Reporter Ratio
Answers are plain numbers.

Example results:
[
  {
    "sequence_string": "AMHGHHGWPWGMEQAATPLG (peptide encoded by synthetic oligomer) [CL02A3GC]",
    "Reporter Ratio": 1.89
  },
  {
    "sequence_string": "AMHGAAGWPWGMEQGCTPLG (peptide encoded by synthetic oligomer) [CL02A3HH]",
    "Reporter Ratio": 1.29
  },
  {
    "sequence_string": "AMHGHHGWPWGMEQGCAALG (peptide encoded by synthetic oligomer) [CL02A3TP]",
    "Reporter Ratio": 1.91
  }
]

Required: Reporter Ratio, one value per sequence below.
1. AMHGHHGWAAGMEQGCTPLG (peptide encoded by synthetic oligomer) [CL02A3PW]
2. AMAAHHGWPWGMEQGCTPLG (peptide encoded by synthetic oligomer) [CL02A3HG]

Marked response:
1.24
1.5

// provenance: patent US7422867B2
